Task for the reader: assign each of the following molecules its reported CDMF75 IC15.
Target: bovine cardiac myofibrils (full-length cardiac myosin ATPase in the native sarcomere) (Bos taurus (Bovine))
Sequence (Q9BE39 whole entry): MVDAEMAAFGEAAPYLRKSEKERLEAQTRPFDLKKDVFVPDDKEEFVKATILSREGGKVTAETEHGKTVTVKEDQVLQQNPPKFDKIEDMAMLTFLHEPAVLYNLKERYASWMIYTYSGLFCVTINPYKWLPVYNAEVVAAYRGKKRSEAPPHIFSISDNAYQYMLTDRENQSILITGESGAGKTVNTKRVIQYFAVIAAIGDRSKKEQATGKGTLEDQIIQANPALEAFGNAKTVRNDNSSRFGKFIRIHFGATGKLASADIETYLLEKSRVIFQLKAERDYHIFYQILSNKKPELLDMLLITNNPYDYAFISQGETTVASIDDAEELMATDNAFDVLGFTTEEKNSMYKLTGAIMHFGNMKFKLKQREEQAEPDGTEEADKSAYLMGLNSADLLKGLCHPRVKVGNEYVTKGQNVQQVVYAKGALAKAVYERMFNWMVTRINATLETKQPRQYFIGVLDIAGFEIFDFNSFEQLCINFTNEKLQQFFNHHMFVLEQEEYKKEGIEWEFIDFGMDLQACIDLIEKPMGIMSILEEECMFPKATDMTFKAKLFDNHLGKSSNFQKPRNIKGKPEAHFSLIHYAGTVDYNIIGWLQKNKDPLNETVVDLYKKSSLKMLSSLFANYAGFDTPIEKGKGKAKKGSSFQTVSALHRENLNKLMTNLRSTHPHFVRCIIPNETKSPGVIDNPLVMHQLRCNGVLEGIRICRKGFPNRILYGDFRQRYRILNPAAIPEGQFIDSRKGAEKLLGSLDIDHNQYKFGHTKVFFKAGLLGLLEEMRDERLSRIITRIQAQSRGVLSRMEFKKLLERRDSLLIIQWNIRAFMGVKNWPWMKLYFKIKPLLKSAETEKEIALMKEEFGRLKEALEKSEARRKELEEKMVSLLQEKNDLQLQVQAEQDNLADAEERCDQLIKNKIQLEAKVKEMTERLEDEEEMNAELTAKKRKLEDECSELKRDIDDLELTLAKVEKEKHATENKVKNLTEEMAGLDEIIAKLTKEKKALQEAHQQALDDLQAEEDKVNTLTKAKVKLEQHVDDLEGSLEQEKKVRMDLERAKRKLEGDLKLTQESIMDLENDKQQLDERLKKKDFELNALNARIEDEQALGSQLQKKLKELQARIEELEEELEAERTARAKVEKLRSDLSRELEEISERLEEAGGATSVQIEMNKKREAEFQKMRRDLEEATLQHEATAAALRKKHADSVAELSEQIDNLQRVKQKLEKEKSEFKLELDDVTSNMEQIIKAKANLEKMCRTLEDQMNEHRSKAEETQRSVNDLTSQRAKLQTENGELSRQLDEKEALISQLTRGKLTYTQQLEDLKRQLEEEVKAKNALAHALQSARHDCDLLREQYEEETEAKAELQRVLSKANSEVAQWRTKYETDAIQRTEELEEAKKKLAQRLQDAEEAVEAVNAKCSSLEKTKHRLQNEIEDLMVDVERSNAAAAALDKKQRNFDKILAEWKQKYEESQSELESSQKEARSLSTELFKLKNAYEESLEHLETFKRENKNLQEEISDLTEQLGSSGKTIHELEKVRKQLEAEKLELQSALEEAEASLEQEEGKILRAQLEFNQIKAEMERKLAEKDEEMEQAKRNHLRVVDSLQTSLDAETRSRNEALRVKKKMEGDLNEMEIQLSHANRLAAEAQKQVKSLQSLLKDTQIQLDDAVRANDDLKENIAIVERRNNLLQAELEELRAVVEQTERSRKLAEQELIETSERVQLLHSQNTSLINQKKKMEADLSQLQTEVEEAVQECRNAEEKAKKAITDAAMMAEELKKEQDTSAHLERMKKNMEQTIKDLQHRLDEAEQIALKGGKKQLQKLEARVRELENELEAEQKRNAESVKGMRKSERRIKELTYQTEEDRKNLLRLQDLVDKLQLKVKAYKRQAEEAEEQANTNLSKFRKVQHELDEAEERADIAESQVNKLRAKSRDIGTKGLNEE
Sequence (P85100 whole entry partner): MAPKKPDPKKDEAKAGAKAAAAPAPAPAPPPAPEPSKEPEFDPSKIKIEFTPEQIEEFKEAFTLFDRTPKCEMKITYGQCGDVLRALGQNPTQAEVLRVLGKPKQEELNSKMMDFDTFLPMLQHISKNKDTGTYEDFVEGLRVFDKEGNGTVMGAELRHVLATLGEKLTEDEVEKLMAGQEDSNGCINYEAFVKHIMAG
Sequence (Q3SZE5 whole entry partner): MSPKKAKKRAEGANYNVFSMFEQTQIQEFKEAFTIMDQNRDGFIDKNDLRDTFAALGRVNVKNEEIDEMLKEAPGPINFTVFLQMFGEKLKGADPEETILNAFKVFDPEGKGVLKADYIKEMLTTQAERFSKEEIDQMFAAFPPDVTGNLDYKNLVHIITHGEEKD
Experiment: Skinned bovine cardiac myofibril ATPase assay (PK/LDH-coupled)
Type: biochemical
Conditions: Ca2+ activating to 75% of maximal rate, concentration giving 15% inhibition
Record the value in nM, omitting the unit from your answer.

q: What does the data say about its CDMF75 IC15? Entry: Cc1ncc(C(=O)NC2COc3cc(-c4noc(C(F)F)n4)ccc32)o1 (centres unmarked) [Compound 205]
a: 1100

q: What does the data say about its CDMF75 IC15? Entry: CO[C@@H](C)c1nc(-c2ccc3c(c2)CC[C@H]3NC(=O)c2oncc2C)no1 [Compound 126]
a: 1600

q: What does the data say about its CDMF75 IC15? Entry: [2H]C([2H])([2H])c1nc(-c2ccc3c(c2)CC[C@H]3NC(=O)c2c[nH]nc2C)no1 [Compound 401]
a: 900

q: What does the data say about its CDMF75 IC15? Entry: Cc1cc(C(=O)NC2CCc3cc(-c4cc(C(F)F)no4)ccc32)ccn1 (centres unmarked) [Compound 170]
a: 3800

q: What does the data say about its CDMF75 IC15? Entry: Cc1ccnc(C(=O)NC2CCc3cc(-c4noc(C)n4)ccc32)c1 (centres unmarked) [Compound 68]
a: 1600

q: What does the data say about its CDMF75 IC15? Entry: CCc1nc(-c2ccc3c(c2)CC[C@H]3NC(=O)c2ccon2)no1 [Compound 586]
a: 500

q: What does the data say about its CDMF75 IC15? Entry: CCc1nc(-c2ccc3c(c2)C[C@H](O)[C@H]3NC(=O)c2cnn(C)c2)no1 [Compound 495]
a: 10000

q: What does the data say about its CDMF75 IC15? Entry: CCc1nc(-c2ccc3c(c2)CC[C@H]3NC(=O)c2cnn(C3COC3)c2)no1 [Compound 470]
a: 4400

Every entry's value here was drawn from patent US12065436B2.
